Biological target: Mtb Lpd (Mycobacterium tuberculosis (strain ATCC 25618 / H37Rv), UniProt P9WHH9)
Assay type: biochemical
Conditions: read-out: LPD IC50
Property label: pIC50
Expect pIC50 as a plain number equal to -log10 of the molar concentration.

These recorded examples may help you get a feel for the data.
Smiles structure: Cc1cc(S(=O)(=O)N(C)CC(=O)NCc2cn(C)nn2)c2[nH]ncc2c1
pIC50: 6.95

Smiles structure: Cc1cc(S(=O)(=O)N(C)CC(=O)Nc2ccc(C3CCN(C)CC3)c(Cl)c2)c2[nH]ncc2c1
pIC50: 7.14

Shifting focus to the molecule that follows.
[Q] State, in one line, measured pIC50 of `CN(CC(=O)Nc1ccn(C)c(=O)c1)S(=O)(=O)c1cc(C2CC2)cc2cn[nH]c12`
[A] 6.82
